# EXPERIMENT_NOTES: Half life in rat
# Format: ADME, organism-based
# CONDITION_PARAMETERS: in vivo

CHEM_SMILES | UNIT_ANNOTATION | half-life
CC(C)(C)OC[C@@H]1C(=O)NCCN1C(=O)C[C@H](N)Cc1cc(F)c(F)cc1F | h | 6.1

* * *

# EXPERIMENT_NOTES: Oral bioavailability in rat
# Type: ADME, organism-based
# CONDITION_PARAMETERS: in vivo
PROPERTY: bioavailability (%)

CHEM_SMILES | MEASURED
CC(C)(C)OC[C@@H]1C(=O)NCCN1C(=O)C[C@H](N)Cc1cc(F)c(F)cc1F | 74.8
